ENDPOINT_NAME: melting point

Working through the 7 compounds below one at a time, give melting point for each.
1. O=c1c2ccc(-c3ccc(Cl)cc3)cc2ccn1CCc1ccc(CN2CCCC2)cc1
2. O=c1c2ccc(-c3ccc(Cl)cc3)cc2ncn1CCc1ccc(CN2CC=C(c3ccccc3)CC2)cc1
3. CCc1ccc(-c2ccc3c(=O)n(CCc4ccc(CN5CCCC5)cc4)cnc3c2)cc1
4. O=c1c2ccc(-c3ccc(Cl)cc3)cc2nnn1CCc1ccc(CN2CCCC2)cc1
5. CN1CCN(C(=O)c2ccc(CCNC(=O)c3ccc(-c4ccc(Cl)cc4)cc3)cc2)CC1
6. CN1CCN(c2ccc(CCn3cnc4cc(-c5ccc(Cl)cc5)ccc4c3=O)cn2)CC1
7. O=c1c2ccc(-c3ccc(Cl)cc3)cc2ncn1CCc1ccc(CN2CCCC2)cc1

Response:
["136 to 137 °C", "166 to 167 °C", "165 to 166 °C", "151 to 152 °C", "217 to 218 °C", "263 to 264 °C", "178 to 179 °C"]

Query: For `O=c1c2ccc(-c3ccc(Cl)cc3)cc2nnn1CCc1ccc(CN2CCC(O)(c3ccccc3)CC2)cc1` , what is its reported melting point?
Response: 265 to 266 °C

###

ENDPOINT_NAME: melting point

{"COMPOUND": "O=c1c2ccc(-c3ccc(Cl)cc3)cc2ncn1CCc1ccc(CN2CCC(O)(c3ccccc3)CC2)cc1", "melting point": "204 to 205 °C"}
{"COMPOUND": "O=c1c2ccc(-c3ccc(Cl)cc3)cc2ncn1CCc1ccc(CN2CCOCC2)cc1 [Example 1.16]", "melting point": "169 to 170 °C"}
{"COMPOUND": "CN1CCN(c2ccc(CCNC(=O)c3ccc(-c4ccc(Cl)cc4)cc3)cn2)CC1 [Example 2.50]", "melting point": "211 to 213 °C"}
{"COMPOUND": "O=c1c2ccc(-c3ccc(Cl)cc3)cc2nnn1Cc1ccc(CN2CCCC2)cc1 [Example 1.19]", "melting point": "147 to 148 °C"}
{"COMPOUND": "O=c1c2ccc(-c3ccc(Cl)cc3)cc2ncn1CCc1ccc(CN2CCC3(CCCCC3)CC2)cc1 [Example 1.25]", "melting point": "184 to 185 °C"}

Working through the 2 compounds below one at a time, give melting point for each.
1. COc1ccc(-c2ccc3c(=O)n(CCc4ccc(CN5CCCC5)cc4)cnc3c2)cc1 [Example 1.4]
2. O=c1c2ccc(-c3ccc(Cl)c(Cl)c3)cc2ncn1CCc1ccc(CN2CCCC2)cc1 [Example 1.5]

Response:
1: 143 to 144 °C; 2: 148 to 149 °C

Query: For O=c1c2ccc(-c3ccc(Cl)cc3)cc2ncn1CCc1ccc(CN2CCC(Nc3ccccn3)CC2)cc1 [Example 1.27] , what is its reported melting point?
Response: 164 to 166 °C

###

ENDPOINT_NAME: melting point

Example entries and their recorded answers appear below.
{"MOLECULE_SMILES": "O=c1c2ccc(-c3ccc(F)cc3)cc2ncn1CCc1ccc(CN2CCCC2)cc1", "melting point": "160 to 161 °C"}
{"MOLECULE_SMILES": "Cc1ccc(-c2ccc3c(=O)n(CCc4ccc(CN5CCCC5)cc4)cnc3c2)cc1", "melting point": "157 to 158 °C"}
{"MOLECULE_SMILES": "O=c1c2ccc(-c3ccc(C(F)(F)F)cc3)cc2ncn1CCc1ccc(CN2CCCC2)cc1", "melting point": "179 to 181 °C"}
{"MOLECULE_SMILES": "CN(C)Cc1ccc(CCn2cnc3cc(-c4ccc(Cl)cc4)ccc3c2=O)cc1", "melting point": "183 °C"}
{"MOLECULE_SMILES": "O=c1c2ccc(-c3ccc(Cl)cc3)cc2nnn1CCc1ccc(CN2CCC(c3ccccc3)CC2)cc1", "melting point": "183 to 184 °C"}

Working through the 3 molecules below one at a time, give melting point for each.
1. O=c1[nH]c2cc(-c3ccc(Cl)cc3)ccc2c(=O)n1CCc1ccc(CN2CCCC2)cc1
2. O=c1c2ccc(-c3ccc(Cl)cc3)cc2ncn1CCc1ccc(CN2CCN(c3ccccc3)CC2)cc1
3. O=c1c2ccc(-c3ccc(Cl)cc3)cc2ncn1CCc1ccc(CN2CCC(c3ccccc3)CC2)cc1

Response:
274 to 276 °C
199 to 200 °C
178 to 179 °C
